The entries below are paired with their reported % Cell Death.
- test protocol: MMV: MTT Cytotoxicity Assay Day 7 pi of Assay #10 (NO washout), U87-CD4-CCR5 cells, % cell death @ 5mM compound
- Assay type: toxicity, cell-based
- condition: human, u87-cd4-ccr5, 5000 µM
Answer using only a numeral; do not append any unit.

Answered cases to consult:
COc1ccc(C=C2SC(=N)N(c3ccccc3OC)C2=O)cc1: 143
Cc1cc(NC(=O)C2c3ccccc3C(=O)N(CC(C)C)C2c2cccs2)no1 (stereo not drawn): 36
COc1nc(Nc2ccc(C(C)C)cc2)nc(OC)n1: 33
COc1cccc(NC(=O)Cn2c(C)c(C#N)c3ccccc32)c1: 12
CCCCNCC(O)(c1ccc(Cl)cc1)c1ccc(Cl)cc1: 11
COc1ccc(C(=O)Nc2ccc3nc(N4CCCCC4)cc(C)c3c2)cc1OC: 91
CN(C)CCNc1cc(-c2ccccc2)nc2ccccc12: 71
CC1CCN(Cc2c(O)ccc3cc(-c4nc5ccccc5s4)c(=O)oc23)CC1: 30

Query :: Which % Cell Death reading was recorded for the compound Oc1ccc(Br)cc1CN1CCN(Cc2ccc(Cl)cc2)CC1 ?
Result :: 46

Query :: Which % Cell Death reading was recorded for the compound CC(=O)Nc1nnc(SCc2c(C)cc(C(C)(C)C)cc2C)s1 ?
Result :: 3

Query :: Which % Cell Death reading was recorded for the compound CCC1(C)CC(CCNCc2ccccc2O)(c2ccc(C)cc2)CCO1 (stereo not drawn) ?
Result :: 27

Query :: Which % Cell Death reading was recorded for the compound O=C(Nc1ccc(F)c(Cl)c1)Nc1ccc(Cl)c(Cl)c1 ?
Result :: 22

Query :: Which % Cell Death reading was recorded for the compound Cl.Cn1c(=O)n(C)c2cc(CNCCNc3ccnc4cc(Cl)ccc34)ccc21 ?
Result :: 23

Reference source: ChEMBL document CHEMBL3301472
